experimentalDetails: GDH-TPI coupling enzyme inhibitors, primary screen, artefact control for M. tuberculosis FBA inhibitor project, biochemical, absorbance, full deck (AID 588335);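 note: 0% = DMSO wells and 100% = wells lacking the enzyme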
runParameters: GDH-TPI coupled enzyme counterscreen, NADH absorbance; at 4.8 µM
Hit rate of the full screen: of about 360,000 compounds, about 4,500 (1.2%) were called active. Cut-off read from the data, not from the text of the source: active = inhibition above about 30%; inactive = the rest. The entries come from a sample that favours actives as a whole.
Respond with a class label; see true (1) = active, false (0) = inactive

For orientation, consider the following solved cases.
- compound: "COc1c(O)cc2oc(-c3ccc(O)c(O)c3)cc(=O)c2c1O"
  label: "false (0)"
- compound: "CCc1nc2cccnc2n1-c1ccc(C(=O)O)cc1"
  label: "false (0)"

Request: Status in this test for COc1cccc(Nc2ncccc2C(=O)O)c1 ?
Result: false (0)

Request: Status in this test for O=C(NNc1ccccc1Cl)C(O)(c1cccc(C(F)(F)F)c1)c1cccc(C(F)(F)F)c1 ?
Result: false (0)

Request: Status in this test for COc1ccc2c(c1)C(=O)CC(c1ccccc1)O2 (stereo not given) ?
Result: false (0)

Request: Status in this test for FC(F)(F)c1ccc2c3n(nc2c1)CCN=C3c1ccc(Cl)cc1 ?
Result: false (0)

Request: Status in this test for CC1CCC2(CC1)NC(=O)N(Cc1nnc(-c3cccs3)o1)C2=O (stereo not given) ?
Result: false (0)

Request: Status in this test for COc1ccc(-c2cc(=O)c3c(O)cc(O[C@@H]4O[C@H](CO[C@@H]5O[C@@H](C)[C@H](O)[C@@H](O)[C@H]5O)[C@@H](O)[C@H](O)[C@H]4O)cc3o2)cc1O ?
Result: true (1)

Request: Status in this test for Cc1c(O)c(C)c2c(c1O)C(=O)C[C@@H](c1ccccc1)O2 ?
Result: true (1)

Request: Status in this test for O=C1CC(c2ccccc2)C(=O)N2C(=O)CC(c3ccccc3)C(=O)N12 (stereo not given) ?
Result: false (0)

Where do these numbers come from? They come from PubChem BioAssay AID588335.
